Some compounds, each annotated with its measured Imax (%).
Target Desc: p-EGFR Del19/C797S (H1975-clone #23 cells) (Homo sapiens, UniProt P00533)
Test Details: Cell p-EGFR inhibition assay, HTRF, H1975-clone#23 (DEL19/C797S) cells
Type: cell-based
Study Conditions: 16 h treatment, maximum percentage of pEGFR inhibition
Recorded Endpoint: Imax (%)

compound="COCCn1nc(C)c2c1OC[C@H]1CC[C@H](C1)CN1/C(=N/C(=O)c3cc(C)nc-2c3)Nc2ccc(N3CCN(C4CCN(c5cc(F)c([C@H]6CCC(=O)NC6=O)c(F)c5)CC4)CC3)cc21 [Example 161]" target_desc="p-EGFR Del19/C797S (H1975-clone #23 cells) (Homo sapiens, UniProt P00533)" output_unit=% measured_result=95.04
compound="Cc1cc2cc(n1)-c1c(C)nn(C)c1OC[C@H]1CC[C@H](C1)CN1/C(=N/C2=O)Nc2ccc(N3CCN(CC4CN(c5cc(F)c([C@H]6CCC(=O)NC6=O)c(F)c5)C4)[C@@H](CF)C3)cc21 [Example 210]" target_desc="p-EGFR Del19/C797S (H1975-clone #23 cells) (Homo sapiens, UniProt P00533)" output_unit=% measured_result=99.96
compound="Cc1cc2cc(n1)-c1cnn(C)c1OC[C@H]1CC[C@H](C1)CN1/C(=N/C2=O)Nc2ccc(N3CCN(C4CCN(c5ccc([C@H]6CCC(=O)NC6=O)nc5C)CC4)[C@H](C)C3)cc21 [Example 162]" target_desc="p-EGFR Del19/C797S (H1975-clone #23 cells) (Homo sapiens, UniProt P00533)" output_unit=% measured_result=95.16
compound="Cc1cc2cc(n1)-c1c(C)nn(C)c1OC[C@H]1CC[C@H](C1)CN1/C(=N/C2=O)Nc2ccc(N3CCN(C[C@@H]4CCN(c5cc(F)c([C@H]6CCC(=O)NC6=O)c(F)c5)C4)CC3)cc21 [Example 184]" target_desc="p-EGFR Del19/C797S (H1975-clone #23 cells) (Homo sapiens, UniProt P00533)" output_unit=% measured_result=100.52
compound="COC[C@H]1CN(c2ccc3c(c2)N2C[C@@H]4CC[C@H](COc5c(c(C)nn5C)-c5cc(cc(C)n5)C(=O)/N=C/2N3)C4)CCN1C1CCN(c2c(C)cc(C3CCC(=O)NC3=O)nc2C)CC1 (some centres unmarked) [Example 141]" target_desc="p-EGFR Del19/C797S (H1975-clone #23 cells) (Homo sapiens, UniProt P00533)" output_unit=% measured_result=100.38

----------
Target Desc: EGFR L858R (BaF3-L858R cells) (Homo sapiens, UniProt P00533, L858R)
Construct: host or cells: BaF3
Test Details: Cell degradation of EGFR, HTRF assay, BaF3-L858R cells
Type: cell-based
Study Conditions: 16 h treatment, maximum percentage of degradation
# Dmax per entry
Recorded Endpoint: Dmax (%)

compound=Cc1cc2cc(n1)-c1cnn(C)c1OC[C@H]1CCC(C1)CN1/C(=N/C2=O)Nc2ccc(N3CCC(CN4CC(Nc5cc(F)c([C@H]6CCC(=O)NC6=O)c(F)c5)C4)CC3)cc21 recorded_endpoint=Dmax measured_result=81
compound=COC[C@@H]1CN(c2cc3c(cc2C)N/C2=N\C(=O)c4cc(C)nc(c4)-c4cnn(C)c4OC[C@H]4CC[C@H](C4)CN23)CCN1C1CCN(c2cc(F)c([C@H]3CCC(=O)NC3=O)c(F)c2)CC1 recorded_endpoint=Dmax measured_result=86.6
compound=COC[C@@H]1CN(c2cc3c(cc2C)N/C2=N\C(=O)c4cc(C)nc(c4)-c4c(C)nn(C)c4OC[C@H]4CC[C@H](C4)CN23)CCN1C1CCN(c2cc(F)c([C@H]3CCC(=O)NC3=O)c(F)c2)CC1 recorded_endpoint=Dmax measured_result=95.2
compound=Cc1cc2cc(n1)-c1c(C)nn(C)c1OC[C@H]1CC[C@H](C1)CN1/C(=N/C2=O)Nc2ccc(N3CCN(C4CCN(c5cc(F)c([C@H]6CCC(=O)NC6=O)c(F)c5)CC4)C[C@@H]3C)cc21 recorded_endpoint=Dmax measured_result=90.9
compound="COC[C@H]1CN(c2ccc3c(c2)N2CC4CC[C@H](COc5c(cnn5C)-c5cc(cc(C)n5)C(=O)/N=C/2N3)C4)CCN1C1CCN(c2cc(F)c(C3CCC(=O)NC3=O)nc2C)CC1 (stereo partly shown)" recorded_endpoint=Dmax measured_result=84.6
compound="COC[C@@H]1CN(c2ccc3c(c2)N2CC4CC[C@H](COc5c(cnn5C)-c5cc(cc(C)n5)C(=O)/N=C/2N3)C4)CCN1C1CCN(c2ccc(C3CCC(=O)NC3=O)nc2C)CC1 (stereo partly shown)" recorded_endpoint=Dmax measured_result=87.2
compound="Cc1cc2cc(n1)-c1cnn(C)c1OC[C@H]1CCC(C1)CN1/C(=N/C2=O)Nc2ccc(N3CCN(C4CCN(c5ccc(OC6CCC(=O)NC6=O)cc5F)CC4)CC3)cc21 (stereo partly shown)" recorded_endpoint=Dmax measured_result=95.8
compound=CCc1nn(C)c2c1-c1cc(cc(C)n1)C(=O)/N=C1\Nc3ccc(N4CCN(C5CCN(c6cc(F)c([C@H]7CCC(=O)NC7=O)c(F)c6)CC5)[C@@H](COC)C4)cc3N1C[C@@H]1CC[C@H](CO2)C1 recorded_endpoint=Dmax measured_result=88.7
compound=COC[C@H]1CN(c2ccc3c(c2)N2C[C@H]4CC[C@@H](COc5c(c(C)nn5C)-c5cc(cc(C)n5)C(=O)/N=C/2N3)C4)CCN1C1CCN(c2cc(F)c([C@H]3CCC(=O)NC3=O)c(F)c2)CC1 recorded_endpoint=Dmax measured_result=90.5
compound=Cc1nn(C)c2c1-c1cc(cc(Cl)n1)C(=O)/N=C1\Nc3ccc(N4CCN(C5CCN(c6cc(F)c([C@H]7CCC(=O)NC7=O)c(F)c6)CC5)CC4)cc3N1C[C@@H]1CC[C@H](CO2)C1 recorded_endpoint=Dmax measured_result=90.8
